# System: rat CYP1A1, Cyp1a1 (gene 24296)
# Protocol summary: NVS_ADME_rCYP1A1: NovaScreen (NVS) CYP450-related Enzyme Activity (ADME) Assay for rat CYP1A1
Results filed as inconclusive are left out. Calls of active or inactive are those of the source. How the source made its calls: active means hit-call score of the fitted dose curve at least 0.9, where 1 is the maximum; inconclusive means response in the unintended direction; inactive means score below 0.9.
Your response should consist of one outcome taken from YES for active, NO for inactive

[Q] Please share the test call associated with COP(=S)(OC)Oc1ccc([N+](=O)[O-])cc1 .
[A] NO

[Q] Entry to check: COP(=S)(OC)Oc1ccc([N+](=O)[O-])c(C)c1
[A] NO

[Q] Entry to check: CCCN(CCOc1c(Cl)cc(Cl)cc1Cl)C(=O)n1ccnc1
[A] YES

[Q] Entry to check: CCOP(=S)(OCC)Oc1ccc([N+](=O)[O-])cc1
[A] YES

[Q] Entry to check: COc1nc(C)nc(NC(=O)NS(=O)(=O)c2ccccc2Cl)n1
[A] NO

[Q] Entry to check: CC[C@H](C)[C@H]1O[C@]2(C=C[C@@H]1C)C[C@@H]1C[C@@H](C/C=C(\C)[C@@H](O[C@H]3C[C@H](OC)[C@@H](O[C@H]4C[C@H](OC)[C@@H](O)[C@H](C)O4)[C@H](C)O3)[C@@H](C)/C=C/C=C3\CO[C@@H]4[C@H](O)C(C)=C[C@@H](C(=O)O1)[C@]34O)O2 (tested in a mixture with another compound)
[A] NO

[Q] Entry to check: CC[C@H](C)[C@H]1O[C@]2(C=C[C@@H]1C)C[C@@H]1C[C@@H](C/C=C(\C)[C@@H](O[C@H]3C[C@H](OC)[C@@H](O[C@H]4C[C@H](OC)[C@@H](NC)[C@H](C)O4)[C@H](C)O3)[C@@H](C)/C=C/C=C3\CO[C@@H]4[C@H](O)C(C)=C[C@@H](C(=O)O1)[C@]34O)O2
[A] NO

[Q] Entry to check: COP(=S)(OC)SCn1nnc2ccccc2c1=O
[A] NO
